# protocol.details: Half life in cynomolgus monkey liver microsomes
# Format: ADME, Macaca fascicularis
Let's look at some compounds and their measured half-life.

| smiles | half-life |
| --- | --- |
| COc1ccc2c(OC[C@@H]3C[C@H]4C(=O)N(C)CCCC/C=C\[C@H]5C[C@]5(C(=O)NS(=O)(=O)C5(C)CC5)NC(=O)N34)cc(-c3nc(C(C)C)cs3)nc2c1Cl | < 10 min |

Attention now turns to another entry.
Consider COc1ccc2c(OC[C@@H]3C[C@H]4C(=O)N(C)CCCC/C=C\[C@H]5C[C@]5(C(=O)NS(=O)(=O)C5(C)CC5)NC(=O)N34)cc(-c3nc(C(C)C)cs3)nc2c1C . Its measured half-life is < 10 min
